Biological target: T1, Recombinant human lipocalin-2 (LCN2) (human, UniProt P80188 21-198)
T1 construct: Lipocalin-2 (LCN2), human, recombinant; neither is said to be the construct used; also called neutrophil gelatinase-associated lipocalin; siderocalin; source: produced and purified by GenScript
T1 sequence (P80188 21-198): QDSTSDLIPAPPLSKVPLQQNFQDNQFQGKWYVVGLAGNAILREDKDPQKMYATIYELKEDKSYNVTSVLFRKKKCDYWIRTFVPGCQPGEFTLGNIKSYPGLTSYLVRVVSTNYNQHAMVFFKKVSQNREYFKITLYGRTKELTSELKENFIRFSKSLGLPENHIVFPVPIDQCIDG
Test: SPR; MinP-2 immobilised by amine coupling on a CM5 chip (Biacore 8K); LCN2 injected at 7.8, 15.6, 31.2, 62.5 and 125 nM, 30 uL/min, contact 120 s, dissociation 600 s; 25 °C; 1:1 model
Conditions: both partners purified
readout.name: Kd (nM)
Report as a plain number; the unit nM is understood.

Task item: Would you mind telling me what Kd value was observed for MinP-2 (designed binder, de novo miniprotein (RFdiffusion, ProteinMPNN) designed against LCN2; Cloned into pET30b with a Twin-Strep tag; also called MiniP-2; source: E. coli BL21 (DE3) pLysS, purified (Strep-Tactin XT magnetic beads, dialysis)) MSKATVYDVSTGKTYEVSLEDAKKLASYAVYEGGYPLRISVAPEDTKAILDAIKNTSKEKAEEGKKLLEELN ?
Reply: 4.2
